# System: NCI-H522 lung
# Assay Protocol: NCI-60 one-dose screen, 48 h (100 = growth as untreated, 0 = no growth, -100 = all killed)
# Conditions Used: 10 µM unless noted
The panel holds about 83,000 compounds, 20% with a hit somewhere; the sample as a whole holds those more often.
// map growth onto a label; ranges bottom end = under 10%, midrange = from 10% up to 60%, top end = 60% and over

{"columns": ["Molecule", "Assigned Label"],
 "data": [
  ["Cc1ccc(S(=O)(=O)N(CCC(=O)O)c2ccccc2)cc1", "top end"],
  ["CCOC(=O)c1c(Nc2nc3ccccc3s2)sc2c1CCC(=O)C2", "bottom end"],
  ["O=C1c2ccccc2C(=O)c2cc(Cn3c[n+](Cc4ccc5ccccc5c4)c4ccccc43)ccc21", "midrange"],
  ["CCCC[N+]1(C)CCN=C1Cc1ccccc1 (stereo not drawn)", "top end"],
  ["N#C/C(=C\\c1cccc2cnccc12)N1N=NC2C=CC=CC21 (stereo not drawn)", "midrange"],
  ["CC(C)n1nc(-c2ccc3oc(N)nc3c2)c2c(N)ncnc21", "bottom end"],
  ["CCOC(=O)c1ccc2c(c1)[n+](=O)c(C(C)=O)c(C(F)(F)F)n2[O-]", "bottom end"],
  ["COc1cc(CNC(=O)CCCC/C=C/C(C)C)ccc1OCc1cn(-c2cccc([N+](=O)[O-])c2)nn1", "top end"],
  ["O=C1OCC2=C1C(c1cccc(F)c1)c1cc3c(cc1N2CCO)CCC3 (stereo not drawn)", "midrange"],
  ["CCCCCCCC/C=C\\CCCCCCCCOc1ccc(CC(=O)NCC[N+]2(C)CCCC2)cc1", "midrange"],
  ["C#CC(F)(F)[C@]1(O)CCC2C3CCC4=CC(=O)CCC4=C3[C@@H](c3ccc(N(C)C)cc3)C[C@@]21C (stereo partly drawn)", "top end"],
  ["C=CN(C(=O)N1CCN(c2cc3c(cc2F)c(=O)c(C(=O)O)cn3C2CC2)CC1)c1nc(-c2ccc(C)cc2)cs1", "bottom end"],
  ["Cc1ccc(-c2nn(CC(=O)N3CCOCC3)c(N)c2C#N)cc1", "top end"],
  ["CCOC(=O)/C(=C\\c1ccccc1Cl)P(=O)(OCC)OCC", "midrange"],
  ["COc1ccc(NC(=O)c2sc3nc(C)c(C(=O)c4ccccc4)cc3c2N)cc1", "top end"],
  ["O=C(/C=C\\c1ccc(O)c(O)c1)c1ccccc1O", "bottom end"],
  ["Cn1ccnc1C(=O)/C=C/c1ccc(CC(=O)Nc2cc(F)c(F)c(F)c2)cc1", "midrange"],
  ["CCN1C(=O)N(CC)C2C1NN=c1s/c(=C3\\C(=O)N(C)c4ccccc43)c(=O)n12 (stereo not drawn)", "midrange"]
]}

* * *

# Tested on: OVCAR-5 ovarian
# Assay Protocol: NCI-60 one-dose screen, 48 h
# Conditions Used: 10 µM unless noted
This is part of a sample that, as a whole, favours compounds with a hit. Of some 83,000 tested, about 20% had one in any assay. Activity calls are given as the source filed them. How the source made its calls: active means growth percent below 10; inactive means the rest.
Outcomes: class 1 (active), class 0 (inactive)

{"columns": ["Compound", "Assigned Label"],
 "data": [
  ["Cc1ccccc1NC(=O)c1sc2nc3c(cc2c1N)CCCC3", "class 0"],
  ["CCOC(=O)/C(=C/c1ccc([N+](=O)[O-])cc1)C(=O)c1ccccc1", "class 0"],
  ["Cc1cc(=O)oc2cc(Oc3nc(-c4ccccc4)cn4c(-c5ccccc5)cnc34)ccc12", "class 0"],
  ["CO[C@]12C=C/C(=C(/C(=O)OCc3cccnc3)C(=O)CCCCCCCC[C@]3(OC)C=C/C(=C(/C(=O)OCc4cccnc4)C(=O)CCCCCCCC1)O3)O2", "class 1"],
  ["O=C(Cn1cc(CSc2nc3ccccc3o2)nn1)Nc1ccc([N+](=O)[O-])cc1", "class 0"],
  ["O=c1n(C2OC(CO)C(O)C2O)ccc2nccn12 (stereo not drawn)", "class 0"],
  ["O=C(Oc1ccccc1)c1cc(O)c(O)c(O)c1", "class 0"],
  ["C=C1C(=O)O[C@H]2[C@H]1CC/C(COC(=O)NCc1ccc(Cn3c(=O)sn(CCCC)c3=O)cc1)=C\\CC[C@@]1(C)O[C@@H]21", "class 0"]
]}

* * *

# System: OVCAR-3 ovarian
# Assay Protocol: NCI-60 one-dose screen, 48 h
# Conditions Used: 10 µM unless noted
About 83,000 compounds went through this panel and 20% of them were active in at least one assay; those are over-represented in the sample as a whole. Activity calls are given as the source filed them. Rule for the calls: active = growth percent below 10; inactive = the rest.
Outcomes: active, inactive

{"columns": ["Molecule", "Assigned Label"],
 "data": [
  ["COc1ccc(C(=O)/C=C/c2ccc(Cl)cc2)cc1S(N)(=O)=O", "inactive"],
  ["COc1cc2cc(Oc3ccc(NC(=O)Nc4ccc(Cl)c(Cl)c4)cc3)c(C)nc2cc1OCCN1CCCCC1", "inactive"],
  ["O=C1CC2C=CCN2C=C1NC(=O)c1ccccc1 (stereo not drawn)", "inactive"],
  ["COC1=C(OC)C(=O)C(CCCCCCCCCCO)=C(C)C1=O", "inactive"],
  ["Nc1ncc(-c2ccc3ncnc(N4CCc5ccc(Cl)cc54)c3c2)cn1", "active"],
  ["Cn1ccnc1C(=O)/C=C/c1ccc(C(=O)Nc2c(F)c(F)c(F)c(F)c2F)cc1", "active"],
  ["COc1cccc(-c2nn(-c3ccccc3)cc2-c2ccnc(-c3cccnc3)c2)c1", "inactive"],
  ["O=C(Nc1cccc2c1C(=O)c1cccc(NC(=O)c3ccc(C(=O)Nc4cccc5c4C(=O)c4cccc(NC(=O)c6ccccc6)c4C5=O)cc3)c1C2=O)c1ccccc1", "inactive"],
  ["Cc1cc2nc(C(Cl)Cl)nc(-c3ccccc3)n2n1", "inactive"],
  ["C=C1C(=O)O[C@H]2[C@H]1CC/C(CNC(=O)/C=C/c1cc(OC)c(OC)c(OC)c1)=C\\CC[C@@]1(C)O[C@@H]21", "active"],
  ["CN(C)C(=O)OCc1ccc2c(Cl)cc(Cl)c(O)c2n1", "inactive"],
  ["CC1(C)CCC[C@]23C(=O)O[C@](O)(C(=O)C4=C[C@@](C)(/C=C/CCCc5ccc6ccc7cccc8ccc5c6c78)CC[C@@]42O)[C@@H]13", "active"],
  ["COc1ccc(-c2nc(SCCC(C)C)nc(N/N=C(/C)c3ccc(N)cc3)c2C#N)cc1", "inactive"],
  ["COc1cccc2cc(N(C)c3nc(C)nc4c3CCC4)ccc12", "active"],
  ["c1ccc(-c2nc(N3CCNCC3)c3oc(-c4ccccc4)nc3n2)cc1", "active"],
  ["COc1cc(-c2c(-c3ccccc3)c[nH]c2C(=O)NCCCO)c(OC)c2c1OCO2", "inactive"],
  ["CCN1CCN(CCOc2ccc(CNc3ccc4nc(CCC5CCCCC5)[nH]c4c3)cc2)CC1", "inactive"],
  ["N#C/C(Sc1nc2sc3c(c2c(=O)n1Cc1ccccc1)CCCC3)=C1/SC=C(c2ccc(Cl)cc2)N1c1ccccc1", "inactive"],
  ["Cc1ccc(Nc2nc(N)nc(N)c2N=O)cc1Cl", "inactive"],
  ["C=C(CNCCc1ccc(O)cc1)[C@@H]1CC[C@]2(CO)CC[C@]3(C)[C@H](CC[C@@H]4[C@@]5(C)CCC(N)C(C)(C)[C@@H]5CC[C@]43C)[C@@H]12 (stereo partly drawn)", "active"],
  ["O=C1CCc2c(sc3[nH]c(=S)n(-c4cc(C(F)(F)F)cc(C(F)(F)F)c4)c(=O)c23)C1", "active"],
  ["CO[C@]12C=C/C(=C(/C(=O)OCc3cccnc3)C(=O)CCCCCCCC[C@]3(OC)C=C/C(=C(/C(=O)OCc4cccnc4)C(=O)CCCCCCCC1)O3)O2", "active"],
  ["NS(=O)(=O)Oc1cccc(-c2nc3sccn3c2-c2ccccc2)c1", "inactive"]
]}

* * *

# Tested on: TK-10 renal
# Assay Protocol: NCI-60 one-dose screen, 48 h (100 = growth as untreated, 0 = no growth, -100 = all killed)
# Conditions Used: 10 µM unless noted
# Protocol: Growth inhibition of the TK-10 human tumor cell line is measured as a screen for anti-cancer activity. Cells are grown in 96 well plates and exposed to the test compound for 48 hours. Compounds are tested at a single concentration, which is 10^-5 M for most compounds. The reported endpoint is percent growth (GI% or GIPRCNT), where numbers from 0 - 100% represent growth inhibition, and numbers from -100% - 0 represent cell death. For example, a value of 40 represents 60% growth inhibition. […]
The panel holds about 83,000 compounds, 20% with a hit somewhere; the sample as a whole holds those more often. The source made the active and inactive calls. The calls were made as follows: active = growth percent below 10; inactive = the rest.
Recorded Endpoint: growth

{"columns": ["Compound", "Tgt", "Recorded Endpoint", "Result"],
 "data": [
  ["C#CC(F)(F)[C@]1(O)CCC2C3CCC4=CC(=O)CCC4=C3[C@@H](c3ccc(N(C)C)cc3)C[C@@]21C (some centres not stated)", "TK-10 renal", "growth", "89.7% (inactive)"],
  ["O=S(=O)(Nc1ccc(Br)cc1)c1ccc(-c2cnc(C3CC3)o2)cc1", "TK-10 renal", "growth", "64.1% (inactive)"],
  ["O=C(/C=C/c1ccco1)c1ccc(Nc2ccnc3cc(Cl)ccc23)cc1", "TK-10 renal", "growth", "116% (inactive)"],
  ["CC1(C)CC[C@]2(CO)CC[C@]3(C)C(=CC[C@@H]4[C@@]5(C)CCNCC(C)(C)[C@@H]5CC[C@]43C)[C@@H]2C1", "TK-10 renal", "growth", "95% (inactive)"],
  ["CN1CCN(CC(=O)N(C)c2ccc(N=C(c3ccccc3)c3c(O)[nH]c4ccc([N+](=O)[O-])cc34)cc2)CC1", "TK-10 renal", "growth", "103% (inactive)"],
  ["COC(=O)CCc1c(/C=C2\\N=C(c3ccc[nH]3)C=C2OC)[nH]c(C)c1C(=O)OCc1ccccc1", "TK-10 renal", "growth", "18.4% (inactive)"],
  ["CCOC(=O)c1cc(C(=O)c2cc(OC)cc(OC)c2)n2ccccc12", "TK-10 renal", "growth", "55.9% (inactive)"],
  ["COc1ccc(-c2cc(-c3ccc(Nc4nc(Nc5ccc(Cl)cc5)nc(Nc5ccc(Cl)cc5)n4)cc3)no2)cc1", "TK-10 renal", "growth", "108% (inactive)"],
  ["CC(Cc1cccc2ccccc12)C(N)=O (configuration not stated)", "TK-10 renal", "growth", "98.7% (inactive)"],
  ["COC(=O)c1ccc(-n2cc(CCCOS(=O)(=O)c3ccc(F)cc3)nn2)cc1", "TK-10 renal", "growth", "102% (inactive)"],
  ["CC1=C2[C@@H](CC1)[C@]1(C)O[C@@](C(C)C)(C[C@H]1OC(=O)CO)[C@H]2OC(=O)CCCc1ccccc1", "TK-10 renal", "growth", "88.4% (inactive)"],
  ["NCCCCCNc1noc(Cc2c[nH]c3cc(Br)ccc23)n1", "TK-10 renal", "growth", "38.6% (inactive)"],
  ["CCN1CCN(CCOc2ccc(CNc3ccc4nc(CCC5CCCCC5)[nH]c4c3)cc2)CC1", "TK-10 renal", "growth", "81.2% (inactive)"],
  ["COc1ccc(-c2ccc(-c3ccc(C(=N)N)nc3)s2)cc1", "TK-10 renal", "growth", "-65.8% (active)"],
  ["O=[N+]([O-])c1ccc(N/N=C\\c2cc(Cl)ccc2O)nc1", "TK-10 renal", "growth", "107% (inactive)"],
  ["Nc1nc(N)c2c(n1)NC(c1cccc(Nc3ccnc4cc(C(F)(F)F)ccc34)c1)CC(c1ccc(Cl)cc1)=N2 (configuration not stated)", "TK-10 renal", "growth", "87.4% (inactive)"],
  ["CCCCC/C=C/CCC(=O)N[C@H]1[C@H](Oc2c3cc4cc2Oc2ccc(cc2Cl)[C@@H](O[C@@H]2O[C@H](CO)[C@@H](O)[C@H](O)[C@H]2NC(C)=O)[C@@H]2NC(=O)[C@H](NC(=O)[C@@H]4NC(=O)[C@H]4NC(=O)[C@@H](Cc5ccc(c(Cl)c5)O3)NC(=O)[C@@H](N)c3ccc(O)c(c3)Oc3cc(O)cc4c3)c3ccc(O)c(c3)-c3c(O[C@H]4O[C@H](CO)[C@@H](O)[C@H](O)[C@@H]4O)cc(O)cc3[C@H](C(=O)O)NC2=O)O[C@H](CO)[C@H](O)[C@@H]1O", "TK-10 renal", "growth", "112% (inactive)"]
]}
